Data provenance is patent US10683293B2.

Quick note: these are pIC50 numbers for system: human RORγt (Ligand Binding Domain) (Homo sapiens, UniProt P51449)
pIC50: −log10 of the molar value.
Metric name: pIC50

* NC(=O)Cc1ccc(CNc2cc(N(Cc3ccc(C(F)(F)F)cc3)C3CC3)ncn2)cc1 | > 6.00
* CS(=O)(=O)c1ccc(CCNc2ncnc(N(Cc3ccc(C(F)(F)F)cc3)C3CC3)c2F)cc1 | > 6.30
* CC(=O)N1CCC(CNc2ncnc(N(Cc3ccc(C(F)(F)F)cc3)C3CC3)c2F)CC1 | > 6.30
* CS(=O)(=O)N1CCC(CNc2ncnc(N(Cc3ccc(C(F)(F)F)cc3)C3CC3)c2F)CC1 | > 6.30
* CS(=O)(=O)c1ccc(CNc2ncnc(N(Cc3ccc(C(F)(F)F)cn3)C3CC3)c2F)cn1 | > 5.70
* FCC1(CNc2ncnc(N(Cc3ccc(C(F)(F)F)cc3)C3CC3)c2F)CCOCC1 | > 6.30
* CN(Cc1ccc(-n2cccn2)cc1)c1ncnc(NCc2ccc(-c3nnn[nH]3)cc2)c1F | > 5.70
* NC(=O)Cc1ccc(CNc2ncnc(N(Cc3ccnc(C(F)(F)F)c3)C3CC3)c2F)cc1 | > 6.30
* NC(=O)Cc1ccc(CNc2ncnc(N(Cc3ccc(C(F)(F)F)nn3)C3CC3)c2F)cc1 | > 5.00
* CCCn1nc(C)cc1CN(C)c1ncnc(NCc2ccc(CC(N)=O)cc2)c1F | > 6.30
* CS(=O)(=O)c1ccc(CNc2ncnc(N(Cc3ccc(C(F)(F)F)nc3)C3CC3)c2F)nc1 | > 6.30
* NC(=O)Cc1ccc(CNc2ncnc(N(Cc3cccc(C(F)(F)F)c3)C3CC3)c2F)cc1 | > 6.30
* O=S1(=O)CCC(O)(CNc2ncnc(N(Cc3ccc(C(F)(F)F)cc3)C3CC3)c2F)CC1 | > 6.30
* O=C(O)CC1(CNc2ncnc(N(Cc3ccc(C(F)(F)F)cc3)C3CC3)c2F)CCS(=O)(=O)CC1 | > 5.00
* CN(Cc1cccc(OC(F)(F)F)c1)c1ncnc(NCc2ccc(CC(N)=O)cc2)c1F | > 6.30
* Fc1c(NCc2ccncc2)ncnc1N(Cc1ccc(C(F)(F)F)cc1)C1CC1 | > 6.30

###

Below, each entry is listed alongside its reported inhibition at 1 µM.
Target: ligand binding domain of human RORγ (Homo sapiens)
Construct: host or cells: HEK293t
Sequence (P51449 269-508 limits assumed): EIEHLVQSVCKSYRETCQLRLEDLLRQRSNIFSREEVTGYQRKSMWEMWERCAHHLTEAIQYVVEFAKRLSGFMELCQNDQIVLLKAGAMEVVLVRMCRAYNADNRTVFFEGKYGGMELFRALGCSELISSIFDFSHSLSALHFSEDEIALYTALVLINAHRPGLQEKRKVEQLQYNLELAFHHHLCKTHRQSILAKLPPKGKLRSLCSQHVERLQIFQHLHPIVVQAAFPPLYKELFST
Assay: RORγ Reporter Assay (Gal4)
Format: cell-based
Conditions: HEK-293T, 1 μM test compound, HEK293t RORγ reporter cells, 24 hour; read-out: Gal4 activity range @ 1 μM (% inhibition)
Metric name: inhibition at 1 µM

• CN(Cc1cccc(-n2cccn2)c1)c1ncnc(NCC2CCN(S(C)(=O)=O)CC2)c1F [Example A143] = > 80%
• CC(c1ccc(C(F)(F)F)cc1)N(c1ncnc(NCC2CCN(S(C)(=O)=O)CC2)c1F)C1CC1 (stereo not shown) [Example A73] = > 80%
• NC(=O)Cc1ccc(CNc2ncnc(N(Cc3cccc(C(F)(F)F)n3)C3CC3)c2F)cc1 [Example A176] = > 50%
• CS(=O)(=O)N1CCC2(CC1)CC2Nc1ncnc(N(Cc2ccc(C(F)(F)F)cc2)C2CC2)c1F (stereo not shown) [Example A169] = > 80%

###

Below, each entry is listed alongside its reported inhibition at 1 µM.
Target: ligand binding domain of human RORγ (Homo sapiens)
Construct: host or cells: HEK293t
Sequence (P51449 269-508 limits assumed): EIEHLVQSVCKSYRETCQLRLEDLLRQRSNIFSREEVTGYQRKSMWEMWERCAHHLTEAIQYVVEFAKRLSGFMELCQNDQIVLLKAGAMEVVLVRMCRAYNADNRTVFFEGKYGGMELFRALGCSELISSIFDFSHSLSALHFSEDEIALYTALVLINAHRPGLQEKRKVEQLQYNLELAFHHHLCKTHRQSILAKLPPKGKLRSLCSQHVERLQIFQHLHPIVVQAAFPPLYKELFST
Assay: RORγ Reporter Assay (Gal4)
Format: cell-based
Details: HEK-293T, 1 μM test compound, HEK293t RORγ reporter cells, 24 hour; read-out: Gal4 activity range @ 1 μM (% inhibition)
Metric name: inhibition at 1 µM

* COc1ccc2cc(CN(C)c3ncnc(NCc4ccc(CC(N)=O)cc4)c3F)ccc2c1 [Example A120] | > 80%
* CC(C)c1ccc(CN(c2ncnc(NCc3ccc(CC(N)=O)cc3)c2F)C2CC2)cc1 [Example A53] | > 80%
* CN(Cc1ccc(-n2cccn2)cc1)c1ncnc(NCc2ccc(CC(N)=O)cc2)c1F [Example A52] | > 50%
* O=S(=O)(CC(F)(F)F)NC1CCC(CNc2ncnc(N(Cc3ccc(C(F)(F)F)cc3)C3CC3)c2F)CC1 (centres unmarked) [x] | > 50%
* NC(=O)Cc1ccc(Cn2ccc3c(N(Cc4ccc(C(F)(F)F)cc4)C4CC4)ncnc32)cc1 [Example I1] | > 80%
* O=C(C1CC1)N1CCC(CNc2ncnc(N(Cc3ccc(C(F)(F)F)cc3)C3CC3)c2F)CC1 [Example A167] | > 80%
* CS(=O)(=O)N1CCC2(CC2Nc2ncnc(N(Cc3ccc(C(F)(F)F)cc3)C3CC3)c2F)C1 (centres unmarked) [Example A172] | > 80%
* FCC1(CNc2ncnc(N(Cc3ccc(C(F)(F)F)cc3)C3CC3)c2F)CCOCC1 [Example A75] | > 80%

###

Below, each entry is listed alongside its reported Gal4 activity range @ 0.1 μM (% inhibition).
Molecular target: ligand binding domain of human RORγ (Homo sapiens)
Construct: host or cells: HEK293t
Sequence (P51449 269-508 limits assumed): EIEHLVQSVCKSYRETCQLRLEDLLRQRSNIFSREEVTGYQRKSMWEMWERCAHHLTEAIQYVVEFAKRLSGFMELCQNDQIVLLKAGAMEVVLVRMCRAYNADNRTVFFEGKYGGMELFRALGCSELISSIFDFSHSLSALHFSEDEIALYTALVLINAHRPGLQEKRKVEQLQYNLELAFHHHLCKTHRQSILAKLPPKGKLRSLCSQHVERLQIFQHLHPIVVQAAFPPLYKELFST
Experiment: RORγ Reporter Assay (Gal4)
Assay type: cell-based
Settings: RORγ Reporter Assay (Gal4), HEK293t reporter cells, compound at 0.1 μM; values are activity range bounds
Metric name: Gal4 activity range @ 0.1 μM (% inhibition)

• CN(Cc1ccc(C(F)(F)F)cc1)c1ncnc(NCc2ccc(CC(N)=O)cc2)c1F = >20 % inhibition
• CNC(=O)CC1(CNc2ncnc(N(Cc3ccc(C(F)(F)F)cc3)C3CC3)c2F)CCOCC1 = >20 % inhibition
• Fc1c(NCc2ccc(Cc3nnn[nH]3)cc2)ncnc1N(Cc1ccc(C(F)(F)F)cc1)C1CC1 = >50 % inhibition
• CN(Cc1cccc(-n2cccn2)c1)c1ncnc(NCC2CCN(S(C)(=O)=O)CC2)c1F = >20 % inhibition

###

Target: ligand binding domain of human RORγ (Homo sapiens, UniProt P51449)
Construct: host or cells: HEK293t
Assay: RORγ Reporter Assay (Gal4)
Type: cell-based
Conditions: RORγ Reporter Assay (Gal4), HEK293t reporter cells, compound at 0.1 μM; values are activity range bounds
Below, each entry is listed alongside its reported Gal4 activity range @ 0.1 μM (% inhibition).
Metric name: Gal4 activity range @ 0.1 μM (% inhibition)

- NC(=O)Cc1ccc(CNc2ncnc(N(Cc3ccc(C(F)(F)F)cc3O)C3CC3)c2F)cc1 [Example A168]: >50 % inhibition
- CN(C)CCNC(=O)CC1(CNc2ncnc(N(Cc3ccc(C(F)(F)F)cc3)C3CC3)c2F)CCOCC1 [Example A151]: >0 % inhibition
- N#Cc1ccc(CN(c2ncnc(NCc3ccc(CC(N)=O)cc3)c2F)C2CC2)cc1 [Example A64]: >50 % inhibition
- CC(c1ccc(C(F)(F)F)cc1)N(c1ncnc(NCc2ccc(CC(N)=O)cc2)c1F)C1CC1 (stereo not shown) [Example A3]: >50 % inhibition
- NC(=O)Cc1ccc(CNc2ncnc(N(Cc3ccc(C(F)F)nc3)C3CC3)c2F)cc1 [Example A179]: >20 % inhibition
- NC(=O)Cc1ccc(CNc2ncnc(N(Cc3ccc(C(F)(F)F)nc3)C3CC3)c2F)cc1 [Example A83]: >50 % inhibition
- NC(=O)Cc1ccc(CNc2cc(N(Cc3ccc(C(F)(F)F)cc3)C3CC3)ncn2)cc1 [Example A107]: >0 % inhibition
- NC(=O)Cc1ccc(CNc2ncnc3c2ccn3Cc2ccc(C(F)(F)F)cc2)cc1 [Example A164]: >20 % inhibition
- O=S(=O)(NC1CC1)c1ccc(CNc2ncnc(N(Cc3ccc(C(F)(F)F)cc3)C3CC3)c2F)cc1 [Example A9]: >20 % inhibition
- CS(=O)(=O)CC1(CNc2ncnc(N(Cc3ccc(C(F)(F)F)cc3)C3CC3)c2F)CCOCC1 [Example A49]: >80 % inhibition
